Values from patent US8404670B2

Target: human histamine H3 receptor (Homo sapiens)
Sequence (Q9Y5N1 whole entry): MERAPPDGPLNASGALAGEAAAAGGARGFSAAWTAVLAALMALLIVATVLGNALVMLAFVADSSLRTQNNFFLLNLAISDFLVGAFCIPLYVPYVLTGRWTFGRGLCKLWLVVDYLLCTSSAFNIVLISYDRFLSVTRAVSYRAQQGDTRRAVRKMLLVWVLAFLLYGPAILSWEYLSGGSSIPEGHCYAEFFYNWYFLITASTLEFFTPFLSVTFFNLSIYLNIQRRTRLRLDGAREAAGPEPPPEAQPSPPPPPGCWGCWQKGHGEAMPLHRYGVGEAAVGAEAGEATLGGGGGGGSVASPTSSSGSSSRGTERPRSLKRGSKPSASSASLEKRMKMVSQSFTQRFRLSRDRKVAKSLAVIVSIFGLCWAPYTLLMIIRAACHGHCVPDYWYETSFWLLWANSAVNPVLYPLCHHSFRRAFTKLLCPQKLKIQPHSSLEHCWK
Assay: H3 GTPγS assay (SPA method), histamine H3 in vitro assay
Conditions: GTPγ[35S] binding to membranes of cells expressing human H3; antagonist mode with R-γ-Me-Histamine at EC80 (30 nM); in one embodiment HCl salts tested; read-out: Potency (functional potency as indicated by IC50)
pIC50: −log10 of the molar value.
Exercise: state measured pIC50 for each of the compounds provided.

{"compound": "c1cncc(-c2ccc3c(c2)nc2n3CCN(C3CCC3)CC2)c1", "pIC50": "≥ 7.00"}
{"compound": "CN(C)C(=O)c1ccc2nc3n(c2c1)CCN(C1CCC1)CC3", "pIC50": "≤ 6.00"}
{"compound": "CC(=O)Nc1ccc(-c2ccc3c(c2)nc2n3CCN(Cc3cnc[nH]3)CC2)cc1", "pIC50": "≤ 6.00"}
{"compound": "c1cc2c(cc1-c1ccc3cncn3c1)nc1n2CCN(C2CCC2)CC1", "pIC50": "≥ 8.00"}

Each compound below has a recorded value; state its pIC50.
1. N#Cc1ccc(C(=O)N2CCCC(c3ccc4c(c3)nc3n4CCN(C4CCC4)CC3)C2)cc1 (stereo not drawn)
2. c1cc2c(cc1-n1cnnn1)nc1n2CCN(C2CCC2)CC1
3. FC(F)(F)c1ccc(-c2ccc3c(c2)nc2n3CCN(C3CCC3)CC2)cc1
4. O=C(c1cnccn1)N1CCCC(c2ccc3c(c2)nc2n3CCN(C3CCC3)CC2)C1 (stereo not drawn)

Output line:
["≥ 7.00", "≥ 7.00", "≥ 7.00", "≥ 7.00"]

Each compound below has a recorded value; state its pIC50.
1. NCCc1ccc2c(c1)nc1n2CCN(C2CCC2)CC1
2. CC(=O)N1CCc2cc3c(cc2C1)nc1n3CCN(C2CCC2)CC1
3. c1cc2c(cc1N1CCN(C3CCOCC3)CC1)nc1n2CCN(C2CCC2)CC1
4. CC(C1CCC1)N1CCc2nc3cc(-c4ccc(C#N)cc4)ccc3n2CC1 (stereo not drawn)
5. CC(=O)Nc1ccc(-c2ccc3c(c2)nc2n3CCN(C3CCC3)CC2)cc1
6. c1cc2ncc(-c3ccc4c(c3)nc3n4CCN(C4CCC4)CC3)cc2[nH]1
7. COc1ccnc(Nc2ccc3c(c2)nc2n3CCN(C3CCC3)CC2)n1
8. NCc1ccc2c(c1)nc1n2CCN(C2CCC2)CC1

Output line:
≥ 7.00
≥ 8.00
≥ 8.00
≥ 7.00
≥ 8.00
≥ 8.00
≥ 7.00
≥ 7.00

Each compound below has a recorded value; state its pIC50.
1. c1cc2c(cc1-c1ccc(N3CCCC3)nn1)nc1n2CCN(C2CCC2)CC1
2. Brc1ccc2nc3n(c2c1)CCN(C1CCC1)CC3
3. c1cc2c(cc1N1CCN(CC3CC3)CC1)nc1n2CCN(C2CCC2)CC1
4. c1cc2nc3n(c2cc1CN1CCCC1)CCN(C1CCC1)CC3
5. c1cc2cc(-c3ccc4c(c3)nc3n4CCN(C4CCC4)CC3)ccc2[nH]1
6. CNC(=O)c1ccc(Oc2ccc3c(c2)nc2n3CCN(C3CCC3)CC2)nc1
7. NCc1ccc(-c2ccc3c(c2)nc2n3CCN(Cc3cnc[nH]3)CC2)cc1

Output line:
1: ≥ 7.00; 2: ≥ 7.00; 3: ≥ 8.00; 4: ≥ 8.00; 5: ≥ 7.00; 6: ≥ 8.00; 7: ≤ 6.00

Each compound below has a recorded value; state its pIC50.
1. c1ccc(N2CCN(c3ccc4c(c3)nc3n4CCN(C4CCC4)CC3)CC2)cc1
2. CN1CCC(N2CCc3nc4cc(-c5ccc(CN)cc5)ccc4n3CC2)CC1
3. c1ccc(C2CCN(c3ccc4c(c3)nc3n4CCN(C4CCC4)CC3)CC2)cc1
4. N#Cc1ccc(-c2ccc3c(c2)nc2n3CCN(CC3CC3)CC2)cc1

Output line:
1: ≥ 8.00; 2: ≤ 6.00; 3: ≥ 7.00; 4: ≥ 7.00

Each compound below has a recorded value; state its pIC50.
1. c1cnc(N2Cc3cc4nc5n(c4cc3C2)CCN(C2CCC2)CC5)cn1
2. c1cn(-c2ccc3c(c2)nc2n3CCN(C3CCC3)CC2)nn1
3. NCc1ccc(-c2ccc3c(c2)nc2n3CCN(C3CCC3)CC2)cc1

Output line:
≤ 6.00
≥ 7.00
≥ 8.00
